The values you see were collected from ChEMBL document CHEMBL1201862.

# System: NCI-H23
# Assay details: NCI tumour cell line growth inhibition, 48 h
Calls of active or inactive are those of the source. No stated cut-off is given here; in the data, active = GI50 up to about 1.1 µM and inactive = higher.
Result category, one only: true (1) for active, false (0) for inactive

Some entries whose results are on file:
Compound | Label class
CCC1(C)NC(c2cnccn2)=NN1c1ccc(Cl)cc1 (centres undefined) | false (0)
OCCO[P+]1(OCCO)n2c3ccc2C(c2ccccc2)=C2C=CC(=N2)C(c2ccccc2)=c2ccc(n21)=C(c1ccccc1)C1=NC(=C3c2ccccc2)C=C1 | true (1)

Req: What outcome does the record of this test show for Cc1ccc(S(=O)(=O)n2cc(/C=C/C#N)c(/C=C/C#N)c2)cc1 ?
Resp: false (0)

Req: What outcome does the record of this test show for Cc1cc(Cc2cc(C)c(N)cc2N)c(N)cc1N ?
Resp: false (0)

Req: What outcome does the record of this test show for COc1ccccc1NC(=O)C1=C(C)NC(C)=C(C(=O)Nc2ccccc2OC)C1c1ccc(C2C(C(=O)Nc3ccccc3OC)=C(C)NC(C)=C2C(=O)Nc2ccccc2OC)cc1 ?
Resp: false (0)

Req: What outcome does the record of this test show for O=c1c(Br)c(-c2ccccc2)[s+]([O-])c2ccccc12 (centres undefined) ?
Resp: false (0)

Req: What outcome does the record of this test show for COc1nc(Cl)nc(N[C@H](C)c2c3ccccc3cc3ccccc23)n1 ?
Resp: false (0)

Req: What outcome does the record of this test show for COC(=O)c1ccc2cc(O)ccc2c1 ?
Resp: false (0)

Req: What outcome does the record of this test show for CC1Cc2cc(O)ccc2C2[C@@H]1C1CC[C@H](O)[C@@]1(C)C[C@@H]2O[N+](=O)[O-] (some centres undefined) ?
Resp: false (0)

----------
# System: BT-549
# Assay details: NCI tumour cell line growth inhibition, 48 h
Active and inactive are the calls of the source. No stated cut-off is given here; in the data, active = GI50 up to about 1.1 µM and inactive = higher.
Result category, one only: TRUE = active, FALSE = inactive

Some entries whose results are on file:
Compound | Label class
OCCO[P+]1(OCCO)n2c3ccc2C(c2ccccc2)=C2C=CC(=N2)C(c2ccccc2)=c2ccc(n21)=C(c1ccccc1)C1=NC(=C3c2ccccc2)C=C1 | TRUE
O=C(NNC(=S)Nc1ccccc1)c1ccccc1Nc1ccccc1C(=O)NNC(=S)Nc1ccccc1 | FALSE

Req: What outcome does the record of this test show for O=c1oc2c([N+](=O)[O-])cc([N+](=O)[O-])cc2c2ccccc12 ?
Resp: FALSE

Req: What outcome does the record of this test show for Cc1cn(C2CC(N=[N+]=[N-])C(CO)O2)c(=O)n(CCCCBr)c1=O (stereo not given) ?
Resp: FALSE

Req: What outcome does the record of this test show for CCCCCc1cc(CCCC)sc1-c1ccco1 ?
Resp: FALSE

----------
In this section we review reported GI50 values for a set of compounds.
# System: HCT-116
# Assay details: NCI tumour cell line growth inhibition, 48 h
Calls of active or inactive are those of the source. Cut-off read from the data, not from the text of the source: active = GI50 up to about 1.1 µM and inactive = higher.

Worked examples, 4 compounds total:
Compound | Measured
Cc1sc2nc3n(c(=O)c2c1C)N=C(c1ccccc1)CS3 | > 100 µM (inactive)
COc1ccc(/C(=N/O)c2ccccc2C2=Nc3ccccc3C(NCc3ccccc3)O2)cc1C (stereo not given) | 25.8 µM (inactive)
Cc1ccc(/N=N/c2c(O)ccc3cc(S(=O)(=O)O)ccc23)c(C)c1 | > 100 µM (inactive)
COC(=O)N/N=C(\C)C(CN(C)C)C(c1ccccc1)c1c(O)c2ccccc2oc1=O (stereo not given) | > 100 µM (inactive)

Could you now consider this next compound?
Req: Entry COc1cc(C2=N/C(=C/c3cccs3)C(=O)O2)cc(OC)c1OC has what GI50?
Resp: > 100 µM (inactive)

----------
# Test system: OVCAR-3
# Assay details: NCI tumour cell line growth inhibition, 48 h
Active and inactive are the calls of the source. Rule as the data show it: active = GI50 up to about 1.1 µM and inactive = higher.
Result category, one only: 1 (yes) = active, 0 (no) = inactive

Compound | Label class
CC(C)(C)c1cc(C=C(C#N)C#N)cc(C(C)(C)C)c1O [TYRPHOSTIN A9] | 1 (yes)
Cc1cn(C2CC(N=[N+]=[N-])C(CO)O2)c(=O)n(CCCCBr)c1=O (stereo unspecified) | 0 (no)
Cc1sc2nc3n(c(=O)c2c1C)N=C(c1ccccc1)CS3 | 0 (no)
O=S(=O)(O)c1cccc2ccc(O)c(/N=N\c3ccc(S(=O)(=O)c4ccc(/N=N/c5c(O)ccc6cccc(S(=O)(=O)O)c56)cc4)cc3)c12 | 0 (no)
CCOC(=O)C(C)OC(=O)c1ccc(C)cc1 (stereo unspecified) | 0 (no)
COC1=CC(=O)[C@]2(C)[C@H](C1=O)C(C)[C@H]2c1ccccc1 (stereo partly specified) | 0 (no)

Req: What outcome does the record of this test show for c1ccc(C2=NCCN2)c(C2=NCCN2)c1 ?
Resp: 0 (no)

Req: What outcome does the record of this test show for C(#CC1(Nc2ccccc2)CCN(Cc2ccccc2)CC1)C1(Nc2ccccc2)CCN(Cc2ccccc2)CC1 ?
Resp: 0 (no)

Req: What outcome does the record of this test show for O=[N+]([O-])c1ccc(C2ON=C(c3ccccc3)N2C23CC4CC(CC(C4)C2)C3)cc1 (stereo unspecified) ?
Resp: 0 (no)

Req: What outcome does the record of this test show for COc1cc(O)c2c(O)c3c(c4c2c1[C@]1(C4)C(C)=CCCC1(C)C)[C@H](O)[C@@]1(O)CC(O)=C(C(N)=O)C(=O)[C@@]1(O)C3=O ?
Resp: 1 (yes)

Req: What outcome does the record of this test show for CC1OC(OC2C(O)C(O)C(O)C(O)C2O)C(N)CC1NC(=N)C(=O)O (stereo unspecified) ?
Resp: 0 (no)

----------
In this section we review reported GI50 values for a set of compounds.
# System: SW-620
# Assay details: NCI tumour cell line growth inhibition, 48 h
The source made the active and inactive calls. No stated cut-off is given here; in the data, active = GI50 up to about 1.1 µM and inactive = higher.

Worked examples, 5 compounds total:
Compound | GI50
COC(=O)C1CCC2(CC1)NC(=O)NC2=O (stereo not drawn) | > 100 µM (inactive)
Cc1cccc2sc(-c3ccc(O)cc3)nc12 | 11.5 µM (inactive)
Cc1oc(N)c(S(=O)(=O)/C(C#N)=C/c2ccccc2[N+](=O)[O-])c1C | 26.6 µM (inactive)
C[C@]12CCC(=O)C=C1CC[C@@H]1[C@@H]2[C@@H](O)C[C@@]2(C)[C@H]1CC[C@]2(O)C(=O)COC(=O)COCC(=O)O | > 100 µM (inactive)
OCCCNCC(O)c1ccc(OCc2ccccc2)c(OCc2ccccc2)c1 (stereo not drawn) | 8.34 µM (inactive)

Req: Entry C=CC[P@]1(=O)O[C@H](c2ccccc2)[C@H](C)N1C has what GI50?
Resp: > 100 µM (inactive)

Req: Entry CC1Cc2cc(O)ccc2C2[C@@H]1C1CC[C@H](O)[C@@]1(C)C[C@@H]2O[N+](=O)[O-] (stereo partly drawn) has what GI50?
Resp: 6.76 µM (inactive)

Req: Entry COc1cc(S(=O)(=O)Nc2ccc(-c3csc(N4C(=O)C(Cl)C4c4ccccc4)n3)cc2)ccc1Cl (stereo not drawn) has what GI50?
Resp: 50.4 µM (inactive)

----------
# Tested on: TK-10
# Assay details: NCI tumour cell line growth inhibition, 48 h
Active and inactive are the calls of the source. Cut-off read from the data, not from the text of the source: active = GI50 up to about 1.1 µM and inactive = higher.
Result category, one only: True for active, False for inactive

Some entries whose results are on file:
Compound | Label class
O=S(=O)(CC(O)C(Cl)(Cl)Cl)NNc1ccccc1 (centres undefined) | False
CC1=C2CCCC2=C/C(=N/Nc2ccc([N+](=O)[O-])cc2[N+](=O)[O-])CC1 | False
CC1OC(OC2C(O)C(O)C(O)C(O)C2O)C(N)CC1NC(=N)C(=O)O (centres undefined) | False
CC(C)=CCC/C(C)=C/CC/C(C)=C/CC/C(C)=C/C=C/C=C(\C)CC/C=C(\C)CC/C=C(\C)CCC=C(C)C | False
O=C(Cc1nc2ncccc2[nH]c1=O)c1c[nH]c2ccccc12 | False
CC(C)OC(=O)[C@@H](O)[C@H](CO)C1=CC([Si](C)(C)c2ccccc2)=CON1 | False
O=S1(=O)OCCOS(=O)(=O)C1F | False
COc1ccccc1NC(=O)C1=C(C)NC(C)=C(C(=O)Nc2ccccc2OC)C1c1ccc(C2C(C(=O)Nc3ccccc3OC)=C(C)NC(C)=C2C(=O)Nc2ccccc2OC)cc1 | False

Here is another compound to look at.
Req: What outcome does the record of this test show for COc1cc2c(c(OC)c1OC)-c1ccc(SC)c(=O)cc1[C@@H](NC(=O)c1ccc(OC(C)=O)cc1)CC2 ?
Resp: True

----------
# Test system: NCI-H23
# Assay details: NCI tumour cell line growth inhibition, 48 h
The source made the active and inactive calls. Cut-off read from the data, not from the text of the source: active = GI50 up to about 1.1 µM and inactive = higher.
Result category, one only: true (1) (active), false (0) (inactive)

Some entries whose results are on file:
Molecule | Label class
COC(=O)CSSCc1ccc([N+](=O)[O-])cc1 | false (0)
Cc1c2ccncc2c(C)c2c1[nH]c1ccc(O)c(OCC(F)(F)F)c12 | false (0)
CC1(C)C2CC3C(C)(C2)C31c1cc(Cl)ccc1N (stereo not given) | false (0)

Here is another molecule to look at.
Req: What outcome does the record of this test show for CC/C=C\C=C/C(=O)N/C=C/CCC ?
Resp: false (0)
